Every entry's value here was drawn from patent US20100247589A1.

What O.D.450 was measured for each of the following?
biological target: tooth pellicle (thin film derived from salivary glycoproteins, formed in a human mouth) (human); assay: phage ELISA on pellicle-coated HAP disks, anti-M13-HRP; no-phage control 0.218
Answer field: number only, no words.

input: Record request: O.D.450 value, item WCTDFCTRSTPTSTSRSTTS [Pell 20]
output: 0.715

input: Suppose we examine the binder DLCSSPSTWGSCIR [Pell 6] ; what O.D.450 value has been reported?
output: 0.735

input: What does the data say about its O.D.450? Entry: NNTWPEGAGHTMPSTNIRQA [Pell 13]
output: 0.598

input: What does the record list as O.D.450 for GNTDTTPPNAVMEPTVQHKW [Pell 9] ?
output: 0.755

input: # input binder: TPCATYPHFSGCRA [Pell 19] ; wanted: its O.D.450
output: 0.731

input: So what's the measured O.D.450 for this one? DECMEPLNAAHCWR [Pell 3]
output: 0.49
